Where do these numbers come from? They come from patent US11555014B2.

Test system: cat eye
Test: Irritative effect or ocular discomfort in the cat eye after topical application
Type: in vivo
Details: dose 0.001% topical, first 2 hours, scale 0 (no discomfort) to 4 (maximal irritation, complete lid closure)
reportedProperty: Degree of irritative effect
Please state the value as a number alone, without comment.

Answered cases to consult:
compound=CC(=O)O.CCN(CC)CCOC(=O)CCC/C=C\C[C@@H]1[C@@H](CC[C@@H](O)CCc2ccccc2)[C@H](O)C[C@@H]1O reportedproperty="Degree of irritative effect" numericreadout=1
compound="CCCCC[C@H](O)/C=C/[C@@H]1[C@@H](C/C=C\\CCCC(=O)O)[C@@H](O)C[C@H]1O [PGF2α, reference compound]" reportedproperty="Degree of irritative effect" numericreadout=3.5
compound="CC(=O)O.CCCCCC(O)C=C[C@H]1C(O)CC(O)[C@@H]1CC=CCCCC(=O)OCCN(CC)CC (stereo partly drawn)" reportedproperty="Degree of irritative effect" numericreadout=1
compound=CC(=O)O.CCN(CC)CCOC(=O)CCC/C=C\C[C@@H]1[C@@H](/C=C/[C@@H](O)COc2cccc(C(F)(F)F)c2)[C@H](O)C[C@@H]1O reportedproperty="Degree of irritative effect" numericreadout=1
compound="CCCCC[C@H](O)/C=C/[C@H]1[C@H](O)CC(=O)[C@@H]1C/C=C\\CCCC(=O)O [PGE2, reference compound]" reportedproperty="Degree of irritative effect" numericreadout=3.5

Let's switch to this compound now.
Quick one: Degree of irritative effect for `CC(=O)O.CCN(CC)CCOC(=O)CCC/C=C\C[C@@H]1[C@@H](/C=C/[C@@H](O)CCc2ccccc2)[C@H](O)C[C@@H]1O` ? 1
